# tested.on: MAGL (Mus musculus)
# Construct: Proteomes (mouse brain membrane fraction or cell lysates)
# procedure.details: In vitro competitive activity-based protein profiling (mouse), MAGL gel band
# conditions.used: mouse
# Protocol: In Vitro Competitive Activity-Based Protein Profiling (Mouse). Proteomes (mouse brain membrane fraction or cell lysates) (50 μL, 1.0 mg/mL total protein concentration) were preincubated with varying concentrations of inhibitors at 37° C. […] Following gel imaging, serine hydrolase activity was determined by measuring fluorescent intensity of gel bands corresponding to MAGL, ABHD6, and FAAH, using ImageJ 1.43u software.
pIC50: −log10 of the molar value.
outcome.measure: pIC50

The examples below pair each entry with its known result.
> print(dat)
                                   compound            tested.on        result
1  CC(=O)Nc1ccn(C(=O)N2CCN(Cc3ccc(Cl)cc3N3CC4COCC4C3)CC2)n1 (stereo not drawn)  MAGL (Mus musculus)        ≥ 7.00
2  CC(C)S(=O)(=O)Nc1ccn(C(=O)N2CCN(Cc3ccc(C(F)(F)F)cc3N3CCCC3)CC2)n1  MAGL (Mus musculus)  5.00 to 6.00
3  CS(=O)(=O)Nc1ccn(C(=O)N2CCN(Cc3ccc(C(F)(F)F)cc3N3CCCC3)CC2)n1  MAGL (Mus musculus)        ≥ 7.00
4  CC(=O)Nc1ccn(C(=O)N2CCN(Cc3ccc(C(F)(F)F)cc3N3CCN4CCC[C@@H]4C3)CC2)n1  MAGL (Mus musculus)        ≥ 7.00
5  CS(=O)(=O)Nc1ccn(C(=O)N2CCN(Cc3cccc(Cl)c3N3CCC4(CCOCC4)C3)CC2)n1  MAGL (Mus musculus)        ≥ 7.00
6  CC(=O)Nc1ccn(C(=O)N2CCN(Cc3cccc(C(F)(F)F)c3-c3nnn[nH]3)CC2)n1  MAGL (Mus musculus)  5.00 to 6.00

Need pIC50 of CC(=O)N(C)c1ccn(C(=O)N2CCN(Cc3cc(N4CCCC4)cc(C(F)(F)F)c3)CC2)n1 , thanks.
6.00 to 7.00

Please do the same for CC(=O)Nc1ccn(C(=O)N2CCC3(CCCN3Cc3ccc(Cl)cc3N3CCC4(CC3)CCN(S(C)(=O)=O)C4)CC2)n1 as well.
≥ 7.00

---

IC50 overview
# tested.on: MAGL (Mus musculus)
# Construct: Proteomes (mouse brain membrane fraction or cell lysates)
# procedure.details: In vitro competitive activity-based protein profiling (mouse), MAGL gel band
# conditions.used: mouse

Worked examples follow.
> print(dat)
                                   compound            tested.on          result
1  CC(=O)Nc1ccn(C(=O)N2CCN(Cc3ccc(Cl)cc3N3CC4CCC(C3)O4)CC2)n1  MAGL (Mus musculus)        ≤ 100 nM
2  CC(=O)Nc1ccn(C(=O)N2CCN(Cc3ccc(Cl)cc3N3CCOCC3)CC2)n1  MAGL (Mus musculus)        ≤ 100 nM
3  CC(=O)Nc1ccn(C(=O)N2CCN(Cc3cc(Oc4cncnc4)cc(C(F)(F)F)c3)CC2)n1  MAGL (Mus musculus)        ≤ 100 nM
4  CC(=O)Nc1ccn(C(=O)N2CCC3(CCCN3Cc3ccc4nc(C)oc4c3)CC2)n1  MAGL (Mus musculus)  100 to 1000 nM

For the compound shown here, CC(=O)Nc1ccn(C(=O)N2CCC3(CCCN3Cc3ccc(C(N)=O)c(C(F)(F)F)c3)CC2)n1 , give the reported IC50.
≤ 100 nM

Ok, now CC(=O)Nc1ccn(C(=O)N2CCC3(CCCN3Cc3ccc(Cl)cc3N3CC4COCC4C3)CC2)n1 (stereo not drawn)
≤ 100 nM

Same lookup for CC(=O)Nc1ccn(C(=O)N2CCC3(CCCN3Cc3ccc(C(F)(F)F)c(C)c3)CC2)n1 , please.
≤ 100 nM

Queued: CC(=O)Nc1ccn(C(=O)N2CCN(Cc3ccc(C(F)(F)F)cc3N3CCN(C(C)=O)CC3)CC2)n1
≤ 100 nM

Another compound: CCN1CCN(c2cc(C(F)(F)F)ccc2CN2CCN(C(=O)n3ccc(NC(C)=O)n3)CC2)CC1
≤ 100 nM

Also CC(=O)Nc1ccn(C(=O)N2CCN(Cc3ccc(C(F)(F)F)cc3N3CCCC3)CC2)n1 , if possible.
≤ 100 nM

Similarly, CS(=O)(=O)Nc1ccn(C(=O)N2CCN(Cc3ccc(Cl)c(N4C5CCC4COC5)c3)CC2)n1 ?
100 to 1000 nM

Thanks! And CC(=O)Nc1ccn(C(=O)N2CCC3(CCCN3Cc3ccc(Cl)cc3N3CCCC3)CC2)n1 ?
≤ 100 nM

Record: CC(=O)Nc1ccn(C(=O)N2CCN(Cc3ccc(C(F)(F)F)cc3OCC(=O)N3CCCC3)CC2)n1
≤ 100 nM

Also CC(=O)Nc1ccn(C(=O)N2CCC3(CCCN3Cc3ccc4c(c3)OCCO4)CC2)n1 ?
100 to 1000 nM

Thanks! And CC(=O)Nc1ccn(C(=O)N2CCC3(CCCN3Cc3ccc(C(F)(F)F)cc3N3CCCCC3)CC2)n1 ?
≤ 100 nM

And the next one, CS(=O)(=O)Nc1ccn(C(=O)N2CCN(Cc3ccc(C(F)(F)F)c(C4CCN(CC(=O)O)CC4)c3)CC2)n1 ?
≤ 100 nM

What do you have for CC(=O)Nc1ccn(C(=O)N2CCC3(CCCN3Cc3ccc(C(F)(F)F)cc3N3CCC4(CC3)CCN(S(C)(=O)=O)C4)CC2)n1 ?
≤ 100 nM

Next entry: CC(=O)Nc1ccn(C(=O)N2CCN(Cc3ccc(Cl)cc3N3CCC4(C3)CN(S(C)(=O)=O)C4)CC2)n1
≤ 100 nM

What do you have for CC(=O)Nc1ccn(C(=O)N2CCC3(CCCN3Cc3cc(Cl)cc(N4CCCC4)c3)CC2)n1 ?
≤ 100 nM

One more compound: CC(=O)Nc1ccn(C(=O)N2CCC3(CCCN3Cc3ccc(N4CCOCC4)c(C(F)(F)F)c3)CC2)n1
≤ 100 nM

Thanks! And CS(=O)(=O)Nc1ccn(C(=O)N2CCN(Cc3cc(Cl)ccc3N3CCOCC3)CC2)n1 ?
100 to 1000 nM

---

Parameter: inhibition at 5 mg/kg. Scope: all listed entries.
# tested.on: MAGL (Mus musculus, UniProt O35678)
# Construct: Proteomes (mouse brain membrane fraction or cell lysates); from tissue; host or cells: mouse brain membrane fraction (or cell lysates)
# Sequence (O35678 whole entry): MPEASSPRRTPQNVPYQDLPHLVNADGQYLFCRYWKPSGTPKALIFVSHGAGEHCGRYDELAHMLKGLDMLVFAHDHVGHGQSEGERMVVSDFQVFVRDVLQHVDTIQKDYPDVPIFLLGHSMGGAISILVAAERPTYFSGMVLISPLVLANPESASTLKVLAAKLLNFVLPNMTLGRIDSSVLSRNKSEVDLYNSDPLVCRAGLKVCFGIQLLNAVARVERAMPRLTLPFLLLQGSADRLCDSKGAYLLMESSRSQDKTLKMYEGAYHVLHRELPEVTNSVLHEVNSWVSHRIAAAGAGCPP
# procedure.details: Mouse brain proteomes from inhibitor treated mice (oral gavage, sacrificed 4 h after administration)
# Type: in vivo
# conditions.used: read-out: MAGL % inh. 5 mg/kg

Use the examples below as a reference point.
> print(dat)
                                   compound     result
1  CC(=O)N1CCC2(CC1)CN(c1cc(C(F)(F)F)ccc1CN1CCN(C(=O)n3ccc(NS(C)(=O)=O)n3)CC1)C2   0 to 25%
2  CC(=O)Nc1ccn(C(=O)N2CCC3(CCCN3Cc3ccc(C(F)(F)F)cc3N3CCC4(CCOCC4)C3)CC2)n1   0 to 25%
3  CC(=O)Nc1ccn(C(=O)N2CCC3(CCCN3Cc3ccc(C(F)(F)F)c(C)c3)CC2)n1  50 to 75%
4  CC(=O)Nc1ccn(C(=O)N2CCN(Cc3ccc(Cl)cc3-c3nnn[nH]3)CC2)n1   0 to 25%
5  CC(=O)N1CCC2(CC1)CCN(c1cc(C(F)(F)F)ccc1CN1CCN(C(=O)n3ccc(NS(C)(=O)=O)n3)CC1)C2   0 to 25%

For MAGL (Mus musculus, UniProt O35678), provide inhibition at 5 mg/kg of CS(=O)(=O)Nc1ccn(C(=O)N2CCN(Cc3ccc(Cl)c(-c4ccc(C(F)(F)F)nc4)c3)CC2)n1 please.
25 to 50%

Now give it for CC(=O)Nc1ccn(C(=O)N2CCC3(CCCN3Cc3ccc(Cl)cc3N3CC4CCC(C3)O4)CC2)n1 too.
0 to 25%

Ok, now CC(=O)Nc1ccn(C(=O)N2CCN(Cc3ccc(Cl)cc3N3CCC4(C3)CN(S(C)(=O)=O)C4)CC2)n1
0 to 25%

And for CS(=O)(=O)Nc1ccn(C(=O)N2CCN(Cc3ccc(Cl)c(N4CCN(C5CC5)CC4)c3)CC2)n1 ?
0 to 25%

Next record, please: CC(=O)Nc1ccn(C(=O)N2CCN(Cc3cc(OC4CCS(=O)(=O)CC4)cc(C(F)(F)F)c3)CC2)n1
0 to 25%

---

# tested.on: MAGL (Mus musculus)
# Construct: Proteomes (mouse brain membrane fraction or cell lysates); from tissue; host or cells: mouse brain membrane fraction (or cell lysates)
# procedure.details: In vitro competitive activity-based protein profiling (mouse), MAGL gel band
# Type: biochemical
# conditions.used: read-out: MAGL % inh. 1 μM
List of inhibition at 1 µM values.

Observe how each entry below is paired with its result.
> print(dat)
                                   compound            tested.on    result
1  CS(=O)(=O)Nc1ccn(C(=O)N2CCN(Cc3ccc(C(F)(F)F)c(N4CCC(C(N)=O)CC4)c3)CC2)n1  MAGL (Mus musculus)  0 to 25%
2  CS(=O)(=O)Nc1ccn(C(=O)N2CCN(Cc3cccc(Cl)c3N3CC4CCC(C3)O4)CC2)n1  MAGL (Mus musculus)     ≥ 75%
3  CS(=O)(=O)Nc1ccn(C(=O)N2CCC3(CCCN3Cc3cccc(N4CC5CCC(C4)O5)c3Cl)CC2)n1  MAGL (Mus musculus)     ≥ 75%
4  CC(=O)Nc1ccn(C(=O)N2CCC3(CCCN3Cc3ccc(C(F)(F)F)cc3Oc3cncnc3)CC2)n1  MAGL (Mus musculus)     ≥ 75%
5  CC(=O)Nc1ccn(C(=O)N2CCN(Cc3ccc(C#N)cc3-c3nnn[nH]3)CC2)n1  MAGL (Mus musculus)     ≥ 75%

Param item = CC(=O)N(C)c1ccn(C(=O)N2CCC3(CCCN3Cc3cc(N4C5CCC4COC5)cc(C(F)(F)F)c3)CC2)n1 ; retrieve measured inhibition at 1 µM.
0 to 25%

Also need CS(=O)(=O)Nc1ccn(C(=O)N2CCN(Cc3ccc(N4CCCC4)c(C(F)(F)F)c3)CC2)n1 , thanks.
≥ 75%

Field entry: CC(=O)Nc1ccn(C(=O)N2CCN(Cc3ccc(C(F)(F)F)c(-c4nnn[nH]4)c3)CC2)n1
≥ 75%
